STUDY_SYSTEM: Recombinant STAT6 protein (STAT6(W123-T658)) (Homo sapiens, UniProt P42226)
Construct: Recombinant STAT6 protein (STAT6(W123-T658))
Sequence (P42226 123-658): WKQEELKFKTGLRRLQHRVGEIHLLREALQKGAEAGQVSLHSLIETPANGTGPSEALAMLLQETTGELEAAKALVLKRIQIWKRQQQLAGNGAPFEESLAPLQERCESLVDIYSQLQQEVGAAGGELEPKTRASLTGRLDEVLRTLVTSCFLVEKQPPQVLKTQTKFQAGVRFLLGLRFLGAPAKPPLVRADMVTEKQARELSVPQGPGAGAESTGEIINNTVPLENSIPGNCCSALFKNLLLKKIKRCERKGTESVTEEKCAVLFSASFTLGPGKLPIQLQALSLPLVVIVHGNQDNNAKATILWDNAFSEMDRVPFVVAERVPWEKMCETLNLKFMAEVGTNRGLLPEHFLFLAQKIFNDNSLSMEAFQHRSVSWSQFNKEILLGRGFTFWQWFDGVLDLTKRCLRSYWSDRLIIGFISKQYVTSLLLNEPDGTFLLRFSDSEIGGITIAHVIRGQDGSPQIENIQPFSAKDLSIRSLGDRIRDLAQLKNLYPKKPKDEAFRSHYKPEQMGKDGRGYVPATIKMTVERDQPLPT
ASSAY_INFO: STAT6 Fluorescence Polarization (FP) Assay
SETUP_CONDITIONS: STAT6(W123-T658) 250 nM, probe 5-FAM-ApYKPFQDLI-NH2 2 nM, 45-minute incubation
pIC50: −log10 of the molar value.
RESULT_TYPE: pIC50

ITEM_SMILES	RESULT_TYPE	OBS_VALUE
O=C(N[C@H]1CS(=O)(=O)CC[C@H]2CC[C@@H](C(=O)N3CC(c4cccnc4)C3)N2C1=O)c1cc2cc(C(F)(F)P(=O)(O)O)ccc2s1	pIC50	4.52 to 5.52
CC(=O)N1CC[C@H]2CC[C@@H](C(=O)N(C)c3cccc(C#N)c3)N2C(=O)[C@@H](NC(=O)c2cc3cc(C(F)(F)P(=O)(O)O)ccc3[nH]2)C1	pIC50	5.52 to 6.52
CC(=O)N1CC[C@H]2CC[C@@H](C(=O)N3CCC[C@H]3Cc3cccnc3)N2C(=O)[C@@H](NC(=O)c2cc3cc(C(F)(F)P(=O)(O)O)ccc3s2)C1	pIC50	5.52 to 6.52
CC(=O)N1CC[C@H]2CC[C@@H](C(=O)N(Cc3ccccc3)c3ccccc3)N2C(=O)[C@@H](NC(=O)c2cc3cc(C(F)(F)P(=O)(O)O)ccc3[nH]2)C1	pIC50	5.52 to 6.52
Cc1ccc2onc(C(=O)N3CC[C@H]4CC[C@@H](C(=O)N5C[C@@H](c6ccn(C)c(=O)c6)CC56CC6)N4C(=O)[C@@H](NC(=O)c4ccc5ccc([C@H](F)P(=O)(O)O)cc5c4)C3)c2c1	pIC50	≥ 6.52
